B1: Membrane-associated guanylate kinase, WW and PDZ domain-containing protein 1, residues 352 to 401; numbered along this chain, Q96QZ7 (parent)
chain: TEELDSELELPAGWEKIEDPVYGIYYVDHINRKTQYENPVLEAKRKKQLE

Variants of: B1
Assay: abundance fitness (aPCA) (normalised: wild type 0, dead -1); higher = more abundant; growth selection in yeast, the domain comes from the species named
Conditions: Homo sapiens

MUTATION_CODE | abundance fitness
V27C | -0.055
Q48L | -0.279
R32A | -0.249
Y26I | -0.982
E9C | -0.149
P39A | -0.379
Y26E | -0.213
E42N | -0.285
G13A | -0.458
R45V | -0.162
G23H | -0.822
S6I | -0.184
Y36F | -0.308
K47H | -0.172
Y25I | -0.053
V40K | -0.055
I24Y | -0.569
K16S | -0.445
A12F | 0.107
D28R | -1.09
N31L | -0.325
V27W | -0.242

Source listed as the Human Domainome abundance scans (Beltran et al. 2025).
